- target_or_system: LHRH receptor (LHRH binding sites) on EFO-27 human ovarian cancer cells (human)
- assay_details: competition with [125I-Tyr8]BRU-2477, EFO-27 cells
Non-standard residues stand in square brackets, D forms with d. d2Nal = N[C@H](Cc1ccc2ccccc2c1)C(=O)O; DO3A10CM = not defined here; Bpa4 = non-natural residue
Returns: string. Value is Fulfilled if measured EC50 is below 300 nM, and Not fulfilled if it is greater than or equal to it.

Answered examples (5):
binder	qualitative_label
XRWSHRWXPX (N-terminal DO3A10CM; Dnal2 at 1; Bpa4 at 8; azaGly-NH2 at 10 (L-Arg at 6)) [BRU-3031]	Not fulfilled
XXHWSHXWXPX (N-terminal DO3A10CM; Gly-Abz4 linker before 1; Sar at 1; Darg at 6; Bpa4 at 8; azaGly-NH2 at 10) [BRU-2696]	Not fulfilled
XRWSHXWXPX (N-terminal DO3A10CM; Apsp at 1; Darg at 6; Bpa4 at 8; azaGly-NH2 at 10) [BRU-3056]	Not fulfilled
XHWSHXWXPX (pGlu at 1; Darg at 6; Bpa4 at 8; azaGly-NH2 at 10) [BRU-2822]	Not fulfilled
DO3A10CM-[d2Nal]RWSH[dR]W[Bpa4]PGR-NH2 (reading uncertain) [BRU-2969]	Fulfilled

Incoming: Here's an entry: XRRSHXWXPX (N-terminal DO3A10CM; Dnal2 at 1; Darg at 6; Bpa4 at 8; azaGly-NH2 at 10) [BRU-3111] . Is its EC50 below 300 nM?
Outgoing: Fulfilled

Incoming: Regarding XRWSHXWXPX (N-terminal DO3A10CM; Atdc2 at 1; Darg at 6; Bpa4 at 8; azaGly-NH2 at 10) [BRU-3055] , kindly confirm whether its EC50 is beneath 300 nM.
Outgoing: Not fulfilled

Incoming: Does this binder meet the criterion EC50 < 300 nM? XHWSHXWYPX (HELM PEPTIDE1{[Sar].H.W.S.H.[dR].W.Y.P.[O=C(NN[*:1])[*:2]].[am]}$$$$V2.0; N-terminus assumed; SMILES CNCC(=O)N[C@@H](Cc1c[nH]cn1)C(=O)N[C@@H](Cc1c[nH]c2ccccc12)C(=O)N[C@@H](CO)C(=O)N[C@@H](Cc1c[nH]cn1)C(=O)N[C@H](CCCNC(=N)N)C(=O)N[C@@H](Cc1c[nH]c2ccccc12)C(=O)N[C@@H](Cc1ccc(O)cc1)C(=O)N1CCC[C@H]1C(=O)NNC(N)=O) [BRU-2439]
Outgoing: Fulfilled

Incoming: State whether 300 nM exceeds EC50 recorded for XRWSHXWXP (Sar at 1; Darg at 6; Bpa4 at 8; C-terminal Dae linker carrying DO3A10CM) [BRU-3103] .
Outgoing: Fulfilled
